- TARGET: human Nav1.8 (Homo sapiens (Human), UniProt Q9Y5Y9)
- Sequence (Q9Y5Y9 whole entry): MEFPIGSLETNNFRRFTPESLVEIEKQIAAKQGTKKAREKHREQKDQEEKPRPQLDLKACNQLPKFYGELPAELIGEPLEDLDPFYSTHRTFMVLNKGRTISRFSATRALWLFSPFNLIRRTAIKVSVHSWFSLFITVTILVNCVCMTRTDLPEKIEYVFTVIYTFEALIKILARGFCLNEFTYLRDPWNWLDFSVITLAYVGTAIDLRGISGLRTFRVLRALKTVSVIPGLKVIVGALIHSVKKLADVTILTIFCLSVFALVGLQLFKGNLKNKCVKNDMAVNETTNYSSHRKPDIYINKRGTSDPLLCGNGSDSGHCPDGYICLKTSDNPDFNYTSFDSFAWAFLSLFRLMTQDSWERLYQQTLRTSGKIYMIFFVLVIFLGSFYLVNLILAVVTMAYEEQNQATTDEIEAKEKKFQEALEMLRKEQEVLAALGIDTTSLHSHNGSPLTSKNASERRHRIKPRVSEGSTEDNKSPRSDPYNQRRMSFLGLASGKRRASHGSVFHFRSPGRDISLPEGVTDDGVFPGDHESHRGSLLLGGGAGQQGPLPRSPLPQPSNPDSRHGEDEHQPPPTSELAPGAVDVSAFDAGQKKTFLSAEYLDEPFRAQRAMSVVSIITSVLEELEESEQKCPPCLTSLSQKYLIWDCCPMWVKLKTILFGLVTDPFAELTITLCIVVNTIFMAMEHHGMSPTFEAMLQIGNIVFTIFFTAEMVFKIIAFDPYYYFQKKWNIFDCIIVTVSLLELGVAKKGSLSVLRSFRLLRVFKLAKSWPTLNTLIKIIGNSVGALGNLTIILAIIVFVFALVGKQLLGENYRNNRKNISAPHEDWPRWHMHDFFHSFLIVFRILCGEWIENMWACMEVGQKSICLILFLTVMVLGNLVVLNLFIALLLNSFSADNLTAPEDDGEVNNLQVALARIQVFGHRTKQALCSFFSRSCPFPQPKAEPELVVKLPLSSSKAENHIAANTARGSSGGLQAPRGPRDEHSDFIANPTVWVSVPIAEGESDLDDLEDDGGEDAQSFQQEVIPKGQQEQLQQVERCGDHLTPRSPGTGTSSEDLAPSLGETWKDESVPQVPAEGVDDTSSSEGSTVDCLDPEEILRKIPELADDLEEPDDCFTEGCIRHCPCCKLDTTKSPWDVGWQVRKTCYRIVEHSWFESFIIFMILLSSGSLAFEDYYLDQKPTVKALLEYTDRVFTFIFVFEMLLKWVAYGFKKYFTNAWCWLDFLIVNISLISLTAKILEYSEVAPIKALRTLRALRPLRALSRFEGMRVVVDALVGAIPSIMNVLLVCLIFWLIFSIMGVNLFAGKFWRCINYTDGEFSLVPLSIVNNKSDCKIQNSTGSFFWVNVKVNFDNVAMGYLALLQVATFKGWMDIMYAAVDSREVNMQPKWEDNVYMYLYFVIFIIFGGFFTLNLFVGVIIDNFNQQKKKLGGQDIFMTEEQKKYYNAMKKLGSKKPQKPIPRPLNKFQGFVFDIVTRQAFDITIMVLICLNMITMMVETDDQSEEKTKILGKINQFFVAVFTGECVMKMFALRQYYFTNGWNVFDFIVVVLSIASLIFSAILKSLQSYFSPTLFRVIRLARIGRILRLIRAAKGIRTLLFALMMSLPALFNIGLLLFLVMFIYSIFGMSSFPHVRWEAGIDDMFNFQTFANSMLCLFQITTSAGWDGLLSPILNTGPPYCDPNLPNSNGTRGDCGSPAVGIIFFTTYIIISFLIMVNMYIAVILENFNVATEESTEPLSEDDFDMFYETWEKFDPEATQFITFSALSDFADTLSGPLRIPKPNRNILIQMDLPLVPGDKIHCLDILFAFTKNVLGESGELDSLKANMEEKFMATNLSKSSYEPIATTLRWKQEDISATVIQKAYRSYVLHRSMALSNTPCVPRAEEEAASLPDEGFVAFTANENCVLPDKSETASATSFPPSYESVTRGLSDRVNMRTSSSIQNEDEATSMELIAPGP
- Sequence (Q07699 19-218 partner): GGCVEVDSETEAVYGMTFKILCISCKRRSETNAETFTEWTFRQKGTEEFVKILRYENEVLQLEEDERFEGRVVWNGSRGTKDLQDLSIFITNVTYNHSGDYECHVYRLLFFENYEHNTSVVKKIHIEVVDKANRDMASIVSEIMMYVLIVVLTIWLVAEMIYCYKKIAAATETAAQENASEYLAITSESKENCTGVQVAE
- RUN_DESCRIPTION: QPatch 48 HTX voltage-clamp electrophysiology, half inactivation state (V1/2) protocol, HEK293-Nav1.8 cells
- Type: cell-based
- CONDITION_CONTEXT: HEK293 cells expressing human Nav1.8, human Navβ1 and human TREK1, P2 current, read-out: Nav1.8, pIC50 (converted)
Item-by-item account of log10 IC50
The common logarithm of IC50 in nM is what is listed.

Example entries begin here.
CC[C@H]1NCCc2[nH]c(=O)ccc2N2CN(c3cc(C(F)(F)F)c(F)cc3C2=O)c2ccc(F)cc21
1.80
C[C@@H]1NCCc2[nH]c(=O)ccc2N2CN(c3cc(C(F)(F)F)c(F)cc3C2=O)c2ccc(F)cc21
2.80
C[C@H]1NCCc2[nH]c(=O)ccc2N2CN(c3cc(C(F)(F)F)c(F)cc3C2=O)c2ccc(F)cc21
1.50
C[C@H]1NCCc2[nH]c(=O)ccc2N2CN(c3ccc(C(F)(F)F)cc3C2=O)c2ccc(F)cc21
2.00
C[C@H]1CCNc2[nH]c(=O)ccc2N2CN(c3cc(C(F)(F)F)c(F)cc3C2=O)c2ccc(F)c(F)c21
0.80
C[C@@H]1NCCc2[nH]c(=O)ccc2N2CN(c3ccc(C(F)(F)F)cc3C2=O)c2ccc(F)cc21
2.10

Short answer for `CC[C@@H]1NCCc2[nH]c(=O)ccc2N2CN(c3cc(C(F)(F)F)c(F)cc3C2=O)c2ccc(F)cc21` : log10 IC50 was 2.80

###

Catalogue of IC50 readings, one per entry.
- TARGET: human Nav1.8 (Homo sapiens (Human), UniProt Q9Y5Y9)
- RUN_DESCRIPTION: QPatch 48 HTX voltage-clamp electrophysiology, half inactivation state (V1/2) protocol, HEK293-Nav1.8 cells
- Type: cell-based
- CONDITION_CONTEXT: HEK293 cells expressing human Nav1.8, human Navβ1 and human TREK1, P2 current, read-out: Nav1.8, pIC50 (converted)
Put your answer as a value accompanied by its unit after it.

Per the records, this compound ( CC1Cc2[nH]c(=O)ccc2N2CN(c3ccc(F)cc3CN1)c1cc(C(F)(F)F)c(F)cc1C2=O (single isomer, unassigned; isomer 2) [Example 125] ) has IC50 equal to 0.631 µM

###

- TARGET: human Nav1.8 (Homo sapiens (Human), UniProt Q9Y5Y9)
- RUN_DESCRIPTION: QPatch 48 HTX voltage-clamp electrophysiology, half inactivation state (V1/2) protocol, HEK293-Nav1.8 cells
- Assay type: cell-based
- CONDITION_CONTEXT: HEK293 cells expressing human Nav1.8, human Navβ1 and human TREK1, P2 current
Please use Met whenever Nav1.8, pIC50 is not below 8, and Not met whenever it is.

Solved entries:
N#Cc1cc2c(cc1F)C(=O)N1CN2c2ccc(F)c(Cl)c2CNCCc2[nH]c(=O)ccc21
Met
N#Cc1cc2c(cc1Cl)C(=O)N1CN2c2ccc(F)cc2CNCCc2[nH]c(=O)ccc21
Not met
O=C1c2cc(C(F)(F)F)ccc2N2CN1c1ccc(=O)[nH]c1CNCCCc1cc(F)ccc12
Not met
CN1CCCCc2cc(F)ccc2N2CN(C(=O)c3ccc(C(F)(F)F)cc32)c2cc(I)c(=O)[nH]c21
Not met

Okay, now this compound:
Query: Exam item: decide whether the reported Nav1.8, pIC50 for `Cl.O=C1c2cc(F)c(F)cc2N2CN1c1ccc(=O)[nH]c1CCNCc1c2ccc(Cl)c1Cl` is at least 8.
Result: Met

###

- TARGET: human Nav1.8 (Homo sapiens (Human), UniProt Q9Y5Y9)
- RUN_DESCRIPTION: QPatch 48 HTX voltage-clamp electrophysiology, half inactivation state (V1/2) protocol, HEK293-Nav1.8 cells
- Type: cell-based
- CONDITION_CONTEXT: HEK293 cells expressing human Nav1.8, human Navβ1 and human TREK1, P2 current
METRIC_NAME: Nav1.8, pIC50
Please give the numeric answer without any surrounding text.

Some compounds with known Nav1.8, pIC50 results, for comparison:
Cl.O=C1c2cc(F)c(F)cc2N2CN1c1ccc(=O)[nH]c1CCNCc1c(OC(F)F)cccc12
5.4
COc1c(F)ccc2c1CNCCc1[nH]c(=O)ccc1N1CN2c2cc(F)c(F)cc2C1=O.O=CO
6.1

Consider now this further compound.
The compound `Cl.O=C1c2cc(F)c(F)cc2N2CN1c1ccc(=O)[nH]c1CCNCc1c(C(F)F)cccc12` showed Nav1.8, pIC50 equal to 7.1

###

- TARGET: human Nav1.8 (Homo sapiens (Human))
- RUN_DESCRIPTION: QPatch 48 HTX voltage-clamp electrophysiology, half inactivation state (V1/2) protocol, HEK293-Nav1.8 cells
- Format: cell-based
- CONDITION_CONTEXT: HEK293 cells expressing human Nav1.8, human Navβ1 and human TREK1, P2 current
METRIC_NAME: Nav1.8, pIC50
Number only, please.

A selection of reference data follows.
Cl.O=C1c2cc(F)c(Br)cc2N2CN1c1ccc(=O)[nH]c1CCNCc1cc(F)ccc12 [Example 63]
8
Cl.O=C1c2cc(F)c(C(F)(F)F)cc2N2CN1c1ccc(=O)[nH]c1CCNCc1c(F)cccc12 [Example 80]
7.7
O=C1c2cc(C(F)(F)F)ccc2N2CN1c1ccc(=O)[nH]c1CCCCCc1cc(F)ccc12 [Example 7]
8.1

In the following, a different compound is considered.
Lab note: O=C1c2cc(C(F)(F)F)ccc2N2CN1c1ccc(=O)[nH]c1NCCOc1cc(F)ccc12 [Example 15] gave Nav1.8, pIC50 of 5.7

###

- TARGET: human Nav1.8 (Homo sapiens (Human), UniProt Q9Y5Y9)
- RUN_DESCRIPTION: QPatch 48 HTX voltage-clamp electrophysiology, half inactivation state (V1/2) protocol, HEK293-Nav1.8 cells
- Format: cell-based
- CONDITION_CONTEXT: HEK293 cells expressing human Nav1.8, human Navβ1 and human TREK1, P2 current
Where a name gives a salt, the structure may show the parent alone.
METRIC_NAME: Nav1.8, pIC50
The response must contain the number and no unit.

Recorded Nav1.8, pIC50 (molecule `Cl.O=C1c2cc(F)c(C(F)(F)F)cc2N2CN1c1ccc(=O)[nH]c1CCNCc1c(Cl)cccc12` ): 8.5

The molecule listed as `O=C1c2cc(C(F)(F)F)ccc2N2CN1c1ccc(=O)[nH]c1/C=C/Cc1cc(F)ccc12` shows Nav1.8, pIC50 equal to 5.1

So for CC1Cc2[nH]c(=O)ccc2N2CN(c3ccc(F)cc3CN1)c1cc(C(F)(F)F)c(F)cc1C2=O (racemic) [Example 123, hydrochloride] , the logged Nav1.8, pIC50 turned out to be 6.1

In plain terms, `O=C1c2c(ccc(C(F)(F)F)c2F)N2CN1c1ccc(=O)[nH]c1NCCCc1c2ccc(F)c1F` has a documented Nav1.8, pIC50 of 7.6

Nav1.8, pIC50 for `C[C@H]1NCCc2[nH]c(=O)ccc2N2CN(c3cc(Cl)c(F)cc3C2=O)c2ccc(F)cc21` is 7.4

Value of Nav1.8, pIC50 reported for the molecule `O=C1c2cc(F)c(C(F)(F)F)cc2N2CN1c1ccc(=O)[nH]c1CNCCc1cc(F)ccc12` is 7.1

Looking up `CNc1cc2c(cc1F)C(=O)N1CN2c2ccc(F)cc2CNCCc2[nH]c(=O)ccc21` , I see its Nav1.8, pIC50 listed as 6

Short answer for `O=C1c2ccc(C(F)(F)F)cc2N2CN1c1ccc(=O)[nH]c1NCCCc1cc(F)ccc12` : Nav1.8, pIC50 was 7.5

Measured Nav1.8, pIC50 of `O=C1c2cc(C(F)(F)F)ccc2N2CN1c1cc(Cl)c(=O)[nH]c1NCCCc1cc(F)ccc12` : 7.1

Entry under test: `O=C1c2ccc(C(F)(F)F)nc2N2CN1c1ccc(=O)[nH]c1CCCCCc1cc(F)ccc12` . Its Nav1.8, pIC50 was 7.6

# Nav1.8, pIC50 of `O=C1c2cc(F)c(Cl)cc2N2CN1c1ccc(=O)[nH]c1CCNCc1c2ccc(F)c1F` = 8

The value of Nav1.8, pIC50 measured for the molecule `Cc1c(F)ccc2c1CNCCc1[nH]c(=O)ccc1N1CN2c2cc(F)c(F)cc2C1=O.Cl` turned out to be 7.7

###

Reported Nav1.8, pIC50 values are given for each entry in this list.
- TARGET: human Nav1.8 (Homo sapiens (Human), UniProt Q9Y5Y9)
- RUN_DESCRIPTION: QPatch 48 HTX voltage-clamp electrophysiology, half inactivation state (V1/2) protocol, HEK293-Nav1.8 cells
- Format: cell-based
- CONDITION_CONTEXT: HEK293 cells expressing human Nav1.8, human Navβ1 and human TREK1, P2 current
Answer using only a numeral; do not append any unit.

See these solved cases before continuing.
O=C1c2cc(F)c(Cl)cc2N2CN1c1ccc(=O)[nH]c1NCCCc1c2ccc(F)c1F
8.1
Cl.O=C1c2cc(F)c(Br)cc2N2CN1c1ccc(=O)[nH]c1CCNCc1c2ccc(F)c1F
8.2
Cl.O=C1c2cc(Cl)c(C(F)(F)F)cc2N2CN1c1ccc(=O)[nH]c1CCNCc1c2ccc(F)c1F
8.8

response.value for `Cl.O=C1c2cc(F)c(C(F)(F)F)cc2N2CN1c1ccc(=O)[nH]c1NCCNCc1c2ccc(F)c1F` (field: Nav1.8, pIC50) = 7.4

The recorded Nav1.8, pIC50 for entry `O=C1c2cc(C(F)(F)F)ncc2N2CN1c1ccc(=O)[nH]c1CCCCCc1cc(F)ccc12` equals 7.6

Value of Nav1.8, pIC50 reported for the compound `O=C1c2cc(C(F)(F)F)ccc2N2CN1c1ccc(=O)[nH]c1CCCCCCc1cc(F)ccc12` is 6.5

The values you see were collected from patent US20250368647A1.
